- Test system: mRNA expressed from the genes (A) to (D) in rat liver
- protocol-details: Behavior of genes (mRNA expression level, oligo-DNA microarray) in rat liver after 28-day oral administration
- Type: in vivo
- condition-label: gene group (C); Unigene No. Rn.9779; mRNA vs vehicle control group
attribute-measured: Behavior of gene caused by administration of chemical substance, Gene No. 6742

Below are worked cases with known answers.
molecule	observed
Clc1ccc(Cl)cc1 [TS026, 1,4-Dichlorobenzene]	−
CC/C(=C(/CC)c1ccc(O)cc1)c1ccc(O)cc1 [TS068, Diethylstilbestrol]	+
CCOC(=O)C(C)(C)Oc1ccc(Cl)cc1 [TS001, Clofibrate]	+
ClC(Cl)C(Cl)(Cl)Cl [TS055, Pentachloroethane]	+
O=C(O)C1C(C(=O)O)C2(Cl)C(Cl)=C(Cl)C1(Cl)C2(Cl)Cl (stereo not drawn) [TS078, Chlorendic acid]	−

Lookup: I have this molecule here, c1ccc2cc3c(ccc4ccccc43)cc2c1 [TS046, Benz[a]anthracene] , and I need its recorded Behavior of gene caused by administration of chemical substance, Gene No. 6742.
Found: +

Lookup: I have this molecule here, Cc1c2ccccc2c(C)c2c1ccc1ccccc12 [TS047, 7,12-Dimethylbenz [a]anthracene] , and I need its recorded Behavior of gene caused by administration of chemical substance, Gene No. 6742.
Found: −

Lookup: I have this molecule here, Cn1c(N)nc2ncc(-c3ccccc3)cc21 [TS045] , and I need its recorded Behavior of gene caused by administration of chemical substance, Gene No. 6742.
Found: −

Lookup: I have this molecule here, CCCCC(CC)COC(=O)c1ccccc1C(=O)OCC(CC)CCCC (stereo not drawn) [TS002, Di(2-ethylhexyl)phthalate] , and I need its recorded Behavior of gene caused by administration of chemical substance, Gene No. 6742.
Found: +

----------
- Test system: mRNA expressed from the genes (A) to (D) in rat liver
- protocol-details: Behavior of genes (mRNA expression level, oligo-DNA microarray) in rat liver after 28-day oral administration
- Format: in vivo
- condition-label: gene group (C); Unigene No. Rn.9779; mRNA vs vehicle control group
attribute-measured: Behavior of gene caused by administration of chemical substance, Gene No. 6742

Below are worked cases with known answers.
molecule	observed
CCN(N=O)C(N)=O	−
CCCCC(CC)COC(=O)CCCCC(=O)OCC(CC)CCCC (stereo not drawn) [TS018, Di(2-ethylhexyl)adipate]	−
Cc1ccc2cc3c(ccc4ccccc43)c3c2c1CC3	−
ClC1=C(Cl)C2(Cl)C3C4C=CC(C4)C3C1(Cl)C2(Cl)Cl (stereo not drawn)	−
CCSCCC(N)C(=O)O (racemic)	−
c1ccc2c(c1)cc1ccc3cccc4ccc2c1c34 [TS063, Benzo[a]pyrene]	−
O=C(O)C(Cl)(Cl)Cl	−
Clc1c(Cl)c(Cl)c(Cl)c(Cl)c1Cl	−

Lookup: I have this molecule here, C#C[C@]1(O)CC[C@H]2[C@@H]3CCc4cc(O)ccc4[C@H]3CC[C@@]21C , and I need its recorded Behavior of gene caused by administration of chemical substance, Gene No. 6742.
Found: −

Lookup: I have this molecule here, Cc1cccc(N=Nc2ccc(N(C)C)cc2)c1 , and I need its recorded Behavior of gene caused by administration of chemical substance, Gene No. 6742.
Found: −

Lookup: I have this molecule here, COc1ccc(O)c(C(C)(C)C)c1 [TS023, Butylated hydroxyanisole] , and I need its recorded Behavior of gene caused by administration of chemical substance, Gene No. 6742.
Found: −

Lookup: I have this molecule here, ClC(Cl)=C(Cl)Cl , and I need its recorded Behavior of gene caused by administration of chemical substance, Gene No. 6742.
Found: −

Lookup: I have this molecule here, O=[N+]([O-])c1cc[n+]([O-])c2ccccc12 [TS049, 4-Nitroquinoline-1-oxide] , and I need its recorded Behavior of gene caused by administration of chemical substance, Gene No. 6742.
Found: −

Lookup: I have this molecule here, C=CCc1ccc2c(c1)OCO2 , and I need its recorded Behavior of gene caused by administration of chemical substance, Gene No. 6742.
Found: +

Lookup: I have this molecule here, ClC=C(Cl)Cl , and I need its recorded Behavior of gene caused by administration of chemical substance, Gene No. 6742.
Found: +

Lookup: I have this molecule here, CN(C)c1ccc(N=Nc2ccccc2)cc1 , and I need its recorded Behavior of gene caused by administration of chemical substance, Gene No. 6742.
Found: −

Lookup: I have this molecule here, Cc1c(N)cccc1N , and I need its recorded Behavior of gene caused by administration of chemical substance, Gene No. 6742.
Found: −

Lookup: I have this molecule here, CCC1(c2ccccc2)C(=O)NC(=O)NC1=O , and I need its recorded Behavior of gene caused by administration of chemical substance, Gene No. 6742.
Found: +
